tested on: Staphylococcus aureus; experiment: Bactericidal activity against Staphylococcus aureus MTCC 2901; assay type: functional
A collection of compounds and their measured MBC

The cases that follow already have their MBC on record.
CCOc1cc(/C=N/c2c(C)n(C)n(-c3ccccc3)c2=O)ccc1O; >0.14 uM/ml
Cc1c(/N=C/c2ccc(Cl)cc2Cl)c(=O)n(-c2ccccc2)n1C; >0.14 uM/ml
COc1cccc(/C=N/c2c(C)n(C)n(-c3ccccc3)c2=O)c1; >0.16 uM/ml
COc1ccc(/C=N/c2c(C)n(C)n(-c3ccccc3)c2=O)cc1OC; >0.14 uM/ml
Cc1c(/N=C/c2cccc(O)c2)c(=O)n(-c2ccccc2)n1C; >0.16 uM/ml

Prompt: Indicate its recorded MBC; the compound in question is "COc1cc(/C=N/c2c(C)n(C)n(-c3ccccc3)c2=O)cc(OC)c1OC"
Completion: >0.13 uM/ml

Prompt: Indicate its recorded MBC; the compound in question is "COc1cccc(/C=N/c2c(C)n(C)n(-c3ccccc3)c2=O)c1O"
Completion: >0.15 uM/ml

Prompt: Indicate its recorded MBC; the compound in question is "COc1ccccc1/C=N/c1c(C)n(C)n(-c2ccccc2)c1=O"
Completion: >0.16 uM/ml
